Assay: NCI Yeast Anticancer Drug Screen. Data for the sgs1 mgt1 strain (AID 161);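 further: 0% = growth of cultures given vehicle only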
Conditions: S. cerevisiae sgs1 mgt1 strain, at 50.0 µM, stronger effect = higher value
Compounds without any hit were thinned out: in the full panel of roughly 79,000, 15% have a hit.
The entries below come with measured growth inhibition values attached.
readout label: growth inhibition (%)

CN1CC[C@@H](c2ccccc2)[C@@H](O)C1
49.1
O=C(O)/C=C/c1ccc2c(c1)CC1(Cc3ccccc3C1)C2
73
Cc1ccccc1NCc1ccccc1Cl
98.5
CC1(C)OC(C(COC(=O)c2ccc([N+](=O)[O-])cc2)OS(=O)(=O)c2ccc([N+](=O)[O-])cc2)C(C(SCc2ccccc2)SCc2ccccc2)O1 (stereo unspecified)
46.6
CN(C)CCOC(=O)C1(CCC2CCCCC2)CCCCC1
60.5
c1ccc2c(c1)OCC(CN1CCN(CC3COc4ccccc4O3)CC1)O2 (stereo unspecified)
77.7
COc1ccc(-c2nc(C)[nH]c(=O)c2Cc2c(O)ccc3ccccc23)cc1
97.8
O=S(c1ccccc1)c1c(Cl)c(Cl)nc(Cl)c1Cl (stereo unspecified)
99.5
O=C1C(=Cc2ccccc2O)N=C(c2ccccc2)N1n1c(-c2ccccc2)nc2ccccc2c1=O
75.7
CCCCNC(=S)NC1OC(CO)C(O)C(O)C1O (stereo unspecified)
99.5
CSc1ccc(/C=C2\CNC/C(=C\c3ccc(SC)cc3)C2=O)cc1
69.8
